# Target entity: Pim-1 (Homo sapiens)
# Sequence (P11309 whole entry): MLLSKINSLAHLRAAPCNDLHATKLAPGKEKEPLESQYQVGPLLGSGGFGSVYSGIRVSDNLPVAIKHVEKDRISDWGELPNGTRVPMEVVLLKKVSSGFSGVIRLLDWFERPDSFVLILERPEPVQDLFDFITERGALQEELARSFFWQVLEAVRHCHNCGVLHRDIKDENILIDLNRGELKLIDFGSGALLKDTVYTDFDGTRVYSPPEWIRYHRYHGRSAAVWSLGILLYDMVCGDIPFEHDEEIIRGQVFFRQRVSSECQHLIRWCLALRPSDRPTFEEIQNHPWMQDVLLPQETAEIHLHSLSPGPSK
Metric name: pIC50
pIC50 is defined as minus the log10 of a concentration measured in mol/L.

I'm curious: which pIC50 was measured for COC(=O)[C@]1(O)C[C@@H]2O[C@@]1(C)n1c3ccccc3c3c4c(c5c6ccccc6n2c5c31)C(=O)NC4 [K-252a] tested on Pim-1 (Homo sapiens)? 6.82
